For PI3Kalpha (Homo sapiens (Human)), measured log10 of IC50 is reported for the entries below.
Log10 applied to IC50; unit prior to transform: nM.

Examples with their reported log10 of IC50 follow.
>>> endpoint_result("CCc1ncnc(-c2ccc(C(=O)N3CC[C@H](O)C3)c(F)c2)c1C#Cc1ccc(N)nc1")
1.76
>>> endpoint_result("CCc1ncnc(-c2ccc(C(=O)N3CCN(C)C(=O)C3)c(F)c2)c1C#Cc1ccc(N)nc1")
2.06
>>> endpoint_result("CCc1ncnc(-c2cc(F)c(C(=O)N3CCC(C)(O)CC3)c(F)c2)c1C#Cc1ccc(NC)nc1")
2.56

INPUT: Name the value of log10 of IC50 reported for CCc1ncnc(-c2ccc(C(=O)NC3CCCN(C)C3)c(C)c2)c1C#Cc1ccc(N)nc1 (stereo not drawn) when tested on PI3Kalpha (Homo sapiens (Human)).
Sequence (P42336 whole entry, looked up): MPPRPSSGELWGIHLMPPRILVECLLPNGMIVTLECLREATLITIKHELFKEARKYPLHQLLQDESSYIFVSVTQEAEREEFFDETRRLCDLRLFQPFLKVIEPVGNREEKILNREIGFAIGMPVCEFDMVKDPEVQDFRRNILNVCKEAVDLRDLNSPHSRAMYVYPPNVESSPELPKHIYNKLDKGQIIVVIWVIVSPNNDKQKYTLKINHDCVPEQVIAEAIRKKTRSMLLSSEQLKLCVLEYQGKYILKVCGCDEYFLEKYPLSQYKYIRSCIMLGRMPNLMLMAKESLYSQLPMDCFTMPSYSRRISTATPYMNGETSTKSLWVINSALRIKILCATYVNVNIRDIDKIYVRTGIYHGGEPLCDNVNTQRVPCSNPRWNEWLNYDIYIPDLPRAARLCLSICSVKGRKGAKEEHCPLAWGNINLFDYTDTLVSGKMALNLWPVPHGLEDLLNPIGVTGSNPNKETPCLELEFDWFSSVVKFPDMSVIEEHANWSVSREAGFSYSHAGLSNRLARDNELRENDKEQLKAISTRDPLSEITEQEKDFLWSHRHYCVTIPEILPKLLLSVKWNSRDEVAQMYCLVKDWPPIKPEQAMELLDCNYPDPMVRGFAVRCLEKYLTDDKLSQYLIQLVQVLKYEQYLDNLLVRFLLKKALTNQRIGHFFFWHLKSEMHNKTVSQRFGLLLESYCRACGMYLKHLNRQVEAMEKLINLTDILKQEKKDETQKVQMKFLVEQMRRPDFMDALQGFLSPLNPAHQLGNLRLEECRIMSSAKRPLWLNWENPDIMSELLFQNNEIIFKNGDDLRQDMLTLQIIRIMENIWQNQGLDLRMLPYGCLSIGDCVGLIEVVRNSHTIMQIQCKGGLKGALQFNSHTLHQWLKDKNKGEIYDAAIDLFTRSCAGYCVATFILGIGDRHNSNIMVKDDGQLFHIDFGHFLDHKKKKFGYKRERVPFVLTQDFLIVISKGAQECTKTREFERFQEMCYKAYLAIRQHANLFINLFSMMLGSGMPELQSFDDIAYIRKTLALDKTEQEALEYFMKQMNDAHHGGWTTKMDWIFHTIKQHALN
OUTPUT: 2.54

INPUT: Consider the molecule CCc1ncnc(-c2cc(F)c(C(=O)N3CCC4(CC3)COC4)c(Cl)c2)c1C#Cc1ccc(N)nc1 tested on PI3Kalpha (Homo sapiens (Human)); state its log10 of IC50.
OUTPUT: 2.09

INPUT: Report value only: log10 of IC50, PI3Kalpha (Homo sapiens (Human)), CCc1ncnc(-c2ccc(C(=O)N3CCCOCC3)c(Cl)c2)c1C#Cc1ccc(N)nc1 [Example D-157]
OUTPUT: 1.81

INPUT: Report log10 of IC50 on PI3Kalpha (Homo sapiens (Human)) for this entry: CCc1ncnc(-c2ccc(C(=O)N(C)C3CCS(=O)(=O)C3)c(C)c2)c1C#Cc1ccc(N)nc1 (stereo not drawn)
OUTPUT: 1.71

INPUT: Provide log10 of IC50, recorded with PI3Kalpha (Homo sapiens (Human)), of CCc1ncnc(-c2cc(F)c(C(=O)N3CCn4c(C)cnc4C3)c(Cl)c2)c1C#Cc1ccc(N)nc1
OUTPUT: 1.57
